Would you mind telling me the reported IC50 in the guinea pig ileum (GPI) assay of each entry?
biological target: μ opioid receptor (UniProt P35372)
Sequence (P35372 whole entry): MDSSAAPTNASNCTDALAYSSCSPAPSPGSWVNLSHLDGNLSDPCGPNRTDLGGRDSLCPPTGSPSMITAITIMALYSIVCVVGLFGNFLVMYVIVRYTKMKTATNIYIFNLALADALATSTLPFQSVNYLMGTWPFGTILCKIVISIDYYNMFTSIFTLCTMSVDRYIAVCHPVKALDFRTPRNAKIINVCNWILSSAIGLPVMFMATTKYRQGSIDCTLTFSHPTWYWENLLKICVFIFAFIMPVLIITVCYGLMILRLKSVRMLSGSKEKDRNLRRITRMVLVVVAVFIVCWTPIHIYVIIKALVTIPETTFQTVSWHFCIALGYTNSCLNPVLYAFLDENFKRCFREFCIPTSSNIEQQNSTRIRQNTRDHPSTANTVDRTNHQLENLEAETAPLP
Starred links: 1 amine or outer side, 2 acyl side, 3 side chain; linkers in the order of their positions; H or OH if unused. Non-standard residues stand in square brackets, D forms with d. No end group written: not given here. Phe(2-(3-thienyl)) = O=C([C@H](Cc1ccccc1-c1ccsc1)N[*:1])[*:2]; Phe(3-vinyl) = C=Cc1cccc(C[C@H](N[*:1])C(=O)[*:2])c1; Phe(4-vinyl) = C=Cc1ccc(C[C@H](N[*:1])C(=O)[*:2])cc1; Phe(3-Ph) = N[C@@H](Cc1cccc(-c2ccccc2)c1)C(=O)O; Dmt = Cc1cc(O)cc(C)c1C[C@H](N)C(=O)O
Give bare numbers, in nM.

# annotated cases, reported IC50 in the guinea pig ileum (GPI) assay shown
{"columns": ["binder", "IC50 in the guinea pig ileum (GPI) assay, nM"],
 "data": [
  ["[Dmt][dR][Phe(3-vinyl)]G-NH2 (N-terminus assumed; SMILES C=Cc1cccc(C[C@H](NC(=O)[C@@H](CCCNC(=N)N)NC(=O)[C@@H](N)Cc2c(C)cc(O)cc2C)C(=O)NCC(N)=O)c1) [Dmt-D-Arg-Phe(3-vinyl)-Gly-NH2]", 1.43],
  ["[Dmt][dA][Phe(2-(3-thienyl))]G-NH2 (N-terminus assumed; SMILES Cc1cc(O)cc(C)c1C[C@H](N)C(=O)N[C@H](C)C(=O)N[C@@H](Cc1ccccc1-c1ccsc1)C(=O)NCC(N)=O) [Dmt-D-Ala-Phe(2-(3-thienyl))-Gly-NH2]", 1.27],
  ["[Dmt][dR][Phe(4-vinyl)]G-NH2 (N-terminus assumed; SMILES C=Cc1ccc(C[C@H](NC(=O)[C@@H](CCCNC(=N)N)NC(=O)[C@@H](N)Cc2c(C)cc(O)cc2C)C(=O)NCC(N)=O)cc1) [Dmt-D-Arg-Phe(4-vinyl)-Gly-NH2]", 24.1]
]}

From here, focus on the item given below.
Give IC50 in the guinea pig ileum (GPI) assay for the following binder: [Dmt][dR][Phe(3-Ph)]G-NH2 (N-terminus assumed; SMILES Cc1cc(O)cc(C)c1C[C@H](N)C(=O)N[C@H](CCCNC(=N)N)C(=O)N[C@@H](Cc1cccc(-c2ccccc2)c1)C(=O)NCC(N)=O) [Dmt-D-Arg-Phe(3-phenyl)-Gly-NH2]
61.7
